tested on: WHIM2 (cells of a triple-negative basal-like breast cancer xenograft); assay: cell viability of combination (% of vehicle); higher = less cytotoxic; conditions: 1 µM; 72 h; partner dose: 10 nM
MEASUREMENT_KIND: cell viability of combination
Output: the number by itself.

Problem: Entry CCOc1nc2cccc(C(=O)OC(C)OC(=O)OC3CCCCC3)c2n1Cc1ccc(-c2ccccc2-c2nn[nH]n2)cc1 (stereo not given) [Candesartan Cilexetil] + CN(C)C/C=C/C(=O)Nc1cc2c(Nc3ccc(F)c(Cl)c3)ncnc2cc1O[C@H]1CCOC1 [Afatinib] has what cell viability of combination?
Solution: 50.8

Problem: Data request, read-out cell viability of combination, for Cl.Clc1ccccc1CN1CCc2sccc2C1 [Ticlopidine HCl] + CN(C)C/C=C/C(=O)Nc1cc2c(Nc3ccc(F)c(Cl)c3)ncnc2cc1O[C@H]1CCOC1 [Afatinib]
Solution: 47.9

Problem: Which cell viability of combination is reported for this compound? COc1cc2c(Oc3ccc(NC(=O)C4(C(=O)Nc5ccc(F)cc5)CC4)cc3F)ccnc2cc1OCCCN1CCOCC1 + CN(C)C/C=C/C(=O)Nc1cc2c(Nc3ccc(F)c(Cl)c3)ncnc2cc1O[C@H]1CCOC1 [Afatinib]
Solution: 37.7

Problem: Give the measured cell viability of combination of CN(C)c1ccc(O)c2c1CC1CC3C(N(C)C)C(=O)C(C(N)=O)=C(O)C3(O)C(=O)C1=C2O.Cl (stereo not given) [Minocycline HCl] + CN(C)C/C=C/C(=O)Nc1cc2c(Nc3ccc(F)c(Cl)c3)ncnc2cc1O[C@H]1CCOC1 [Afatinib] .
Solution: 49.9

Problem: Which cell viability of combination is listed for Cc1ccc(-n2[nH]c(C)c(NN=C3C=CC=C(c4cccc(C(=O)O)c4)C3=O)c2=O)cc1C [Eltrombopag] + CN(C)C/C=C/C(=O)Nc1cc2c(Nc3ccc(F)c(Cl)c3)ncnc2cc1O[C@H]1CCOC1 [Afatinib] ?
Solution: 48.5

Problem: Can you look up the measured cell viability of combination of CNC1CCC(c2ccc(Cl)c(Cl)c2)c2ccccc21.Cl (stereo not given) [Sertraline HCl] + CN(C)C/C=C/C(=O)Nc1cc2c(Nc3ccc(F)c(Cl)c3)ncnc2cc1O[C@H]1CCOC1 [Afatinib] for me?
Solution: 49.2

Problem: I am curious: what cell viability of combination value has been reported for COc1cc(C(=O)O)ccc1NC(=O)C1NC(CC(C)(C)C)C(C#N)(c2ccc(Cl)cc2F)C1c1cccc(Cl)c1F (stereo not given) + CN(C)C/C=C/C(=O)Nc1cc2c(Nc3ccc(F)c(Cl)c3)ncnc2cc1O[C@H]1CCOC1 [Afatinib] ?
Solution: 44.7

Problem: Given the entry CC[C@@H]1/C=C(\C)C[C@H](C)C[C@H](OC)[C@H]2O[C@@](O)(C(=O)C(=O)N3CCCC[C@H]3C(=O)O[C@H](/C(C)=C/[C@@H]3CC[C@H](Cl)[C@H](OC)C3)[C@H](C)[C@@H](O)CC1=O)[C@H](C)C[C@@H]2OC [Pimecrolimus] + CN(C)C/C=C/C(=O)Nc1cc2c(Nc3ccc(F)c(Cl)c3)ncnc2cc1O[C@H]1CCOC1 [Afatinib] , report its measured cell viability of combination.
Solution: 42.6

Problem: Quick one: cell viability of combination for CCN(CC)CCNC(=O)c1c(C)[nH]c(C=C2C(=O)Nc3ccc(F)cc32)c1C.O=C(O)CC(O)C(=O)O [Sunitinib malate] + CN(C)C/C=C/C(=O)Nc1cc2c(Nc3ccc(F)c(Cl)c3)ncnc2cc1O[C@H]1CCOC1 [Afatinib] ?
Solution: 44.2

Problem: Look at this compound and give its reported cell viability of combination. Cl.Fc1ccc(C2CCNCC2COc2ccc3c(c2)OCO3)cc1 (stereo not given) [Paroxetine HCl] + CN(C)C/C=C/C(=O)Nc1cc2c(Nc3ccc(F)c(Cl)c3)ncnc2cc1O[C@H]1CCOC1 [Afatinib]
Solution: 49.6

* * *

tested on: UCD52 (cells of a triple-negative basal-like breast cancer xenograft); assay: cell viability (% of vehicle); higher = less cytotoxic; conditions: 10 µM; 72 h
// map cell viability onto a label; ranges c1 = under 90, c2 = from 90 up to 100, c3 = 100 and over

Problem: Class? Entry: O=C(O)c1ccccc1O
Solution: c3

Problem: Any idea which band CC(=O)OCC(=O)[C@@]12OC(C)(C)O[C@@H]1C[C@H]1[C@@H]3C[C@H](F)C4=CC(=O)C=C[C@]4(C)[C@@]3(F)[C@@H](O)C[C@@]12C [Fluocinonide] is in?
Solution: c3

Problem: Bin? Nc1nc(=O)c2c(CCc3ccc(C(=O)NC(CCC(=O)[O-])C(=O)[O-])cc3)c[nH]c2[nH]1.[Na+].[Na+] (centres undefined)
Solution: c2

Problem: Could you tell me which band CCCSc1ccc2nc(NC(=O)OC)[nH]c2c1 belongs to?
Solution: c2

Problem: Bin this entry: CC(C)[N+]1(C)C2CCC1CC(OC(=O)C(CO)c1ccccc1)C2.[Br-] (centres undefined) [Ipratropium Bromide]
Solution: c3

Problem: Entry Cc1c(Cl)cccc1Nc1ccccc1C(=O)O belongs to which category?
Solution: c1

Problem: Band for the recorded cell viability of CC(C)CN(CC(O)C(Cc1ccccc1)NC(=O)OC1CCOC1)S(=O)(=O)c1ccc(N)cc1 (centres undefined) ?
Solution: c1

Problem: The entry to classify is NS(=O)(=O)c1cc2c(cc1Cl)NC=NS2(=O)=O [Chlorothiazide] ; which class holds it?
Solution: c2

Problem: For the record CC(=O)O[C@H]1C(=O)[C@@]2(C)[C@H]([C@H](OC(=O)c3ccccc3)[C@]3(O)C[C@H](OC(=O)[C@H](O)[C@@H](NC(=O)c4ccccc4)c4ccccc4)C(C)=C1C3(C)C)[C@]1(OC(C)=O)CO[C@@H]1C[C@@H]2O , report the class its cell viability corresponds to.
Solution: c1

Problem: Would you mind sorting CCNC1CC(N)C(OC2OC(CN)=CCC2N)C(O)C1OC1OCC(C)(O)C(NC)C1O.CCNC1CC(N)C(OC2OC(CN)=CCC2N)C(O)C1OC1OCC(C)(O)C(NC)C1O.O=S(=O)(O)O.O=S(=O)(O)O.O=S(=O)(O)O.O=S(=O)(O)O.O=S(=O)(O)O (centres undefined) [Netilmicin Sulfate] into the appropriate category?
Solution: c3

Problem: Please indicate the class for Cl.O=C(c1ccc(OCCN2CCCCC2)cc1)c1c(-c2ccc(O)cc2)sc2cc(O)ccc12 [Raloxifene HCl] based on its cell viability.
Solution: c1

Problem: Hi there! Could you help me figure out the category for CC(=O)OCC(=O)NCCCOc1cccc(CN2CCCCC2)c1.Cl [Roxatidine Acetate HCl] please?
Solution: c2

* * *

tested on: WHIM2; assay: cell viability (% of vehicle); higher = less cytotoxic; conditions: 10 µM; 72 h
MEASUREMENT_KIND: cell viability
// response body must contain only the number

Problem: Which measured cell viability value corresponds to Cc1onc(-c2ccccc2Cl)c1C(=O)NC1C(=O)N2C1SC(C)(C)C2C(=O)[O-].O.[Na+] (stereo not drawn) [Cloxacillin Sodium] ?
Solution: 132

Problem: Recorded cell viability of CCCCCCCN(CC)CCCC(O)c1ccc(NS(C)(=O)=O)cc1.CCCCCCCN(CC)CCCC(O)c1ccc(NS(C)(=O)=O)cc1.O=C(O)C=CC(=O)O (stereo not drawn) [Ibutilide Fumarate] , please.
Solution: 122

Problem: Would you kindly share the measured cell viability for CN1CCN2c3ncccc3Cc3ccccc3C2C1 (stereo not drawn) ?
Solution: 87.6

Problem: Which cell viability is listed for CCOC(=O)C1=C(C)NC(C)=C(C(=O)OC)C1c1cccc([N+](=O)[O-])c1 (stereo not drawn) ?
Solution: 95.6

Problem: What does the record list as cell viability for N#CC(=C1SCC(c2ccc(Cl)cc2Cl)S1)n1ccnc1 (stereo not drawn) ?
Solution: 97.1

Problem: cell viability for N=C(N)NCCCC[C@@H]1NC(=O)CCSSC[C@@H](C(N)=O)NC(=O)[C@@H]2CCCN2C(=O)[C@H](Cc2c[nH]c3ccccc23)NC(=O)[C@H](CC(=O)O)NC(=O)CNC1=O [Eptifibatide] ?
Solution: 101

Problem: Any idea what cell viability was measured for NC(=O)CC[C@H](N)C(=O)O ?
Solution: 104

Problem: Endpoint output: cell viability of CCOC(=O)C1OC1C(=O)NC(CC(C)C)C(=O)NCCC(C)C (stereo not drawn) . Value?
Solution: 105

Problem: Would you kindly share the measured cell viability for CCC1=CC2CN(C1)Cc1c([nH]c3ccccc13)C(C(=O)OC)(c1cc3c(cc1OC)N(C)C1C(O)(C(=O)OC)C(OC(C)=O)C4(CC)C=CCN5CCC31C54)C2.O=C(O)C(O)C(O)C(=O)O.O=C(O)C(O)C(O)C(=O)O (stereo not drawn) [Vinorelbine ditartrate] ?
Solution: 57.2

Problem: // lookup cell viability for COc1ccc2cccc(CCNC(C)=O)c2c1
Solution: 89.9

Problem: Please give the measured cell viability for this compound: Nc1nc(=O)c2ncn(COCCO)c2[nH]1
Solution: 96

Problem: Please give the measured cell viability for this compound: NS(=O)(=O)Cc1noc2ccccc12 [Zonisamide]
Solution: 92.9

Problem: May I ask what cell viability has been recorded for CCCC(=O)OCOC(=O)C1=C(C)NC(C)=C(C(=O)OC)C1c1cccc(Cl)c1Cl (stereo not drawn) [Clevidipine Butyrate] ?
Solution: 100
